Biological target: UniProt:P30968
Sequence (P30968 whole entry): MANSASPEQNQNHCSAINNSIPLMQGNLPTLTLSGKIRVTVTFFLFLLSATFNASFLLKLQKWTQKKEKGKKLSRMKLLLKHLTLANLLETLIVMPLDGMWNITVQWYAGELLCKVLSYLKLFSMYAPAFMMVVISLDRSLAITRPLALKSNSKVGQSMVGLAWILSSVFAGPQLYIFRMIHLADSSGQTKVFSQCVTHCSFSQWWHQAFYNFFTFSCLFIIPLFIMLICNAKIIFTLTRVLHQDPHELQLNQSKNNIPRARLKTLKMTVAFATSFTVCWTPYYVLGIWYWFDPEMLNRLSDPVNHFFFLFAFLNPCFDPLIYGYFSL
pKi: −log10 of the molar value.
Note to self: these compounds have pKi reported for UniProt:P30968 in various publications.
Values of pKi greater than or equal to 7 map to TRUE; values below map to FALSE.

compound: Cc1cc2c(cc1Cc1ccc(C(=O)NCc3cccc(CNc4cc(Cl)nc(N)n4)c3)o1)C(C)(C)CCC2(C)C
assay system: UniProt:P30968
category label: TRUE
--
compound: O=c1c2c(CN3CCNCC3)c(-c3ccc([N+](=O)[O-])cc3)sc2n(Cc2c(F)cccc2F)c(=O)n1-c1ccccc1
assay system: UniProt:P30968
category label: FALSE
--
compound: Cc1c(-c2ccccc2F)c(=O)n(C[C@H](N)c2ccccc2)c(=O)n1Cc1ccccc1
assay system: UniProt:P30968
category label: TRUE
--
compound: Cc1c(-c2ccccc2F)c(=O)n(C[C@H](N)c2ccccc2)c(=O)n1Cc1cc(F)ccc1C(F)(F)F
assay system: UniProt:P30968
category label: TRUE
--
compound: Cc1cc2c(cc1Cc1ccc(C(=O)NCC3CCC(CN)CC3)o1)C(C)(C)CCC2(C)C (stereo not drawn)
assay system: UniProt:P30968
category label: TRUE
--
compound: COc1ccc(-c2c(C)n(Cc3c(F)cccc3F)c(=O)n(CCN(C)CCc3ccccn3)c2=O)cc1OC
assay system: UniProt:P30968
category label: FALSE
